# Tested on: Pseudomonas fluorescens
# test-summary: Activity at Pseudomonas fluorescens PF-1 beta-lactamase BIC-1 expressed in Escherichia coli DH10B carrying pSau1
endpoint: log10(Km) (log10 of the value in µM)
Scale type: logarithmic (base 10). Underlying Km unit: µM.

The measured log10(Km) associated with CC(=O)OCC1=C(C(=O)O)N2C(=O)[C@@H](NC(=O)Cc3cccs3)[C@H]2SC1 reads 2.74

The measured log10(Km) associated with CO[C@@]1(NC(=O)C(C(=O)O)c2ccc(O)cc2)C(=O)N2C(C(=O)O)=C(CSc3nnnn3C)CO[C@@H]21 (stereo not given in full) reads 3.23

The measured log10(Km) associated with CCN1CCN(C(=O)N[C@@H](C(=O)N[C@@H]2C(=O)N3[C@@H]2SC(C)(C)[C@@H]3C(=O)O)c2ccccc2)C(=O)C1=O reads 2.24

The measured log10(Km) associated with CO/N=C(\C(=O)N[C@@H]1C(=O)N2C(C(=O)O)=C(COC(C)=O)CS[C@H]12)c1csc(N)n1 reads 3.34

The measured log10(Km) associated with Cc1onc(-c2ccccc2)c1C(=O)N[C@@H]1C(=O)N2[C@@H]1SC(C)(C)[C@@H]2C(=O)O reads 2.04

The measured log10(Km) associated with C[C@@H](O)[C@H]1C(=O)N2C(C(=O)O)=C(SCCNC=N)C[C@H]12 [IMIPENEM ANHYDROUS] reads 2.48

The measured log10(Km) associated with CC1(C)S[C@@H]2[C@H](NC(=O)[C@H](C(=O)O)c3ccsc3)C(=O)N2[C@H]1C(=O)O reads 2.40

The measured log10(Km) associated with CC1(C)S[C@@H]2[C@H](NC(=O)[C@H](N)c3ccccc3)C(=O)N2[C@H]1C(=O)O reads 3.06

The measured log10(Km) associated with O=C(Cc1cccs1)N[C@@H]1C(=O)N2C(C(=O)[O-])=C(C[n+]3ccccc3)CS[C@H]12 reads 2.89

The measured log10(Km) associated with CC1(C)S[C@@H]2[C@H](NC(=O)Cc3ccccc3)C(=O)N2[C@H]1C(=O)O reads 1.68

The measured log10(Km) associated with C[C@@H](O)[C@H]1C(=O)N2C(C(=O)O)=C(S[C@@H]3CN[C@H](C(=O)N(C)C)C3)[C@H](C)[C@H]12 reads 1.08

The measured log10(Km) associated with C[C@@H](O)[C@H]1C(=O)N2C(C(=O)O)=C(S[C@@H]3CN[C@H](C(=O)Nc4cccc(C(=O)O)c4)C3)[C@H](C)[C@H]12 reads 1.00

The measured log10(Km) associated with CO[C@@]1(NC(=O)Cc2cccs2)C(=O)N2C(C(=O)O)=C(COC(N)=O)CS[C@@H]21 reads 2.92

====

# Test system: Pseudomonas fluorescens
# test-summary: Activity at Pseudomonas fluorescens PF-1 beta-lactamase BIC-1 expressed in Escherichia coli DH10B carrying pSau1
endpoint: kcat (s⁻¹)
Give the quantity in s⁻¹, number only.

Measured kcat for this entry Cc1onc(-c2ccccc2)c1C(=O)N[C@@H]1C(=O)N2[C@@H]1SC(C)(C)[C@@H]2C(=O)O on Pseudomonas fluorescens: 15

Measured kcat for this entry C[C@@H](O)[C@H]1C(=O)N2C(C(=O)O)=C(S[C@@H]3CN[C@H](C(=O)Nc4cccc(C(=O)O)c4)C3)[C@H](C)[C@H]12 on Pseudomonas fluorescens: 2

Measured kcat for this entry CO/N=C(\C(=O)N[C@@H]1C(=O)N2C(C(=O)O)=C(COC(C)=O)CS[C@H]12)c1csc(N)n1 on Pseudomonas fluorescens: 20

Measured kcat for this entry CO[C@@]1(NC(=O)C(C(=O)O)c2ccc(O)cc2)C(=O)N2C(C(=O)O)=C(CSc3nnnn3C)CO[C@@H]21 (stereo not given in full) on Pseudomonas fluorescens: 3

Measured kcat for this entry CO/N=C(\C(=O)N[C@@H]1C(=O)N2C(C(=O)O)=C(COC(N)=O)CS[C@H]12)c1ccco1 on Pseudomonas fluorescens: 9

Measured kcat for this entry C[C@@H](O)[C@H]1C(=O)N2C(C(=O)O)=C(SCCNC=N)C[C@H]12 [IMIPENEM ANHYDROUS] on Pseudomonas fluorescens: 50

Measured kcat for this entry CC(=O)OCC1=C(C(=O)O)N2C(=O)[C@@H](NC(=O)Cc3cccs3)[C@H]2SC1 on Pseudomonas fluorescens: 250

Measured kcat for this entry C[C@H]1[C@H](NC(=O)/C(=N\OC(C)(C)C(=O)O)c2csc(N)n2)C(=O)N1S(=O)(=O)O on Pseudomonas fluorescens: 35

Measured kcat for this entry CO[C@@]1(NC(=O)Cc2cccs2)C(=O)N2C(C(=O)O)=C(COC(N)=O)CS[C@@H]21 on Pseudomonas fluorescens: 1

Measured kcat for this entry CC1(C)S[C@@H]2[C@H](NC(=O)[C@H](C(=O)O)c3ccsc3)C(=O)N2[C@H]1C(=O)O on Pseudomonas fluorescens: 15

Measured kcat for this entry CCN1CCN(C(=O)N[C@@H](C(=O)N[C@@H]2C(=O)N3[C@@H]2SC(C)(C)[C@@H]3C(=O)O)c2ccccc2)C(=O)C1=O on Pseudomonas fluorescens: 40

Measured kcat for this entry C[C@@H](O)[C@H]1C(=O)N2C(C(=O)O)=C(S[C@@H]3CN[C@H](C(=O)N(C)C)C3)[C@H](C)[C@H]12 on Pseudomonas fluorescens: 1

Measured kcat for this entry CC1(C)S[C@@H]2[C@H](NC(=O)Cc3ccccc3)C(=O)N2[C@H]1C(=O)O on Pseudomonas fluorescens: 31

Measured kcat for this entry O=C(Cc1cccs1)N[C@@H]1C(=O)N2C(C(=O)[O-])=C(C[n+]3ccccc3)CS[C@H]12 on Pseudomonas fluorescens: 170

Measured kcat for this entry CC1(C)S[C@@H]2[C@H](NC(=O)[C@H](N)c3ccccc3)C(=O)N2[C@H]1C(=O)O on Pseudomonas fluorescens: 185
